Source listed as PubChem BioAssay (NCI).

Listed here: items and their measured TGI.
- Tested on: COLO 205 colon
- method-description: NCI tumour cell line growth inhibition, 48 h

Worked cases, answers included:
INSERT INTO assay_data (molecule, reported) VALUES
  ('CS(=O)(=O)Nc1cc(-c2ccc3ncnc(Nc4cccc(Cl)c4F)c3c2)cnc1Cl', '27.8 µM'),
  ('O=S(=O)(O)c1ccc(Nc2ccnc3cc(Cl)ccc23)cc1', '> 100 µM'),
  ('CC1(C)N=C(N)N=C(N)N1c1ccc(OCCCCNC(=O)c2ccc(S(=O)(=O)F)cc2)c(Cl)c1', '> 100 µM');

QUERY: Given the molecule COc1cc(/C=C\c2cc(OC)c(OC)c(OC)c2)cc(NS(=O)(=O)c2cccc(Cl)c2)c1OC , what is its reported TGI?
RESULT: 0.851 µM

QUERY: Subsequent entry: C[C@@H](c1ccccc1)N(CC#N)C1CCC[C@H]1O (stereo partly specified)
RESULT: > 100 µM

QUERY: Field entry: C(#Cc1ccccc1C#Cc1ccccn1)c1ccccn1
RESULT: 46.4 µM

QUERY: # repeat for Cc1cccc(C(O)c2cccnc2)c1O (stereo unspecified)
RESULT: > 100 µM

QUERY: Now try c1ccc2c(c1)c1c3n2-c2cc(on2)C3CCC1 (stereo unspecified) .
RESULT: > 100 µM

###

- Test system: A498 renal
- method-description: NCI tumour cell line growth inhibition, 48 h
property-name: TGI

Sample records with TGI:
INSERT INTO assay_data (compound, property_name, reported) VALUES
  ('CC(=O)[C@H]1CCC2[C@@H]3CC=C4C(O)C(OS(=O)(=O)O)CC[C@]4(C)C3CC[C@@]21C (stereo partly drawn)', 'TGI', '> 100 µM'),
  ('O=C(NCc1cccnc1)C(=O)NCc1cccnc1', 'TGI', '> 100 µM');

QUERY: State the recorded TGI for this entry: Brc1ccc2c(c1)c(-c1nc(-c3c[nH]c4ncccc34)cs1)cn2CCCN1CCCCC1
RESULT: 9.16 µM

###

- Tested on: SK-MEL-2 melanoma
- method-description: NCI tumour cell line growth inhibition, 48 h
property-name: TGI (µM)
Numeric answer only, unit µM assumed.

These solved cases illustrate the format of a correct answer.
INSERT INTO assay_data (compound, reported) VALUES
  ('CC(C)CC(NC(=O)C(COc1ccc([N+](=O)[O-])cc1)Cc1ccccc1)C(=O)Nc1ccccc1 (centres undefined)', 74.1),
  ('NC1CCCCC1N.O=S(=O)([O-])CCCN1CCN(CCO)CC1.O=S(=O)([O-])CCCN1CCN(CCO)CC1.[Pt+4]', 23.4),
  ('C=C(C(=O)OC)[C@H]1CC/C(C)=C/CC/C(C)=C/CC[C@@]2(C)O[C@@H]2C1', 29.9);

Attention now shifts to the item below.
QUERY: Report TGI for C[C@H]1CC2=CC(=O)CC[C@]2(C)[C@H]2CC[C@@]3(C)[C@@H](CC[C@]3(C)O)[C@H]12 please.
RESULT: 37.4

###

- Tested on: CAKI-1 renal
- method-description: NCI tumour cell line growth inhibition, 48 h; in the data active means GI50 below about 0.43 µM; inactive means the rest
A correct response names exactly one class from true (1) (active), false (0) (inactive)

# example entries with known answers
INSERT INTO assay_data (compound, assigned_label) VALUES
  ('Cn1c(O)c(N=NC(N)=S)c2ccccc21', 'false (0)'),
  ('N#C/C(=C\c1cccnc1)c1nc2ccccc2o1', 'false (0)'),
  ('c1cc2ccc1CNCCN1CCNCc3ccc(cc3)Oc3ccc(cc3)CNCCN(CCNCc3ccc(cc3)O2)CCNCc2ccc(cc2)Oc2ccc(cc2)CNCC1', 'false (0)'),
  ('O=C(O)c1cc2c(c3ccsc13)-c1ccccc1CC2', 'false (0)'),
  ('NC1CCCCC1N.O=S(=O)([O-])CCCN1CCN(CCO)CC1.O=S(=O)([O-])CCCN1CCN(CCO)CC1.[Pt+4]', 'false (0)'),
  ('O=S1(=O)CC(Br)C(Br)C1 (stereo not given)', 'false (0)'),
  ('NC(=S)N/N=C\c1nccc2c(C(F)(F)C(F)(F)C(F)(F)F)cccc12', 'true (1)'),
  ('COc1cc(/C=C/c2cc(/C=C/c3ccc(O)c(OC)c3)[nH]c(=O)n2)ccc1O', 'false (0)'),
  ('N#CC1CCc2c(c(-c3cn[nH]c3C(F)(F)F)nc3c(F)cc4[nH]ncc4c23)C1 (stereo not given)', 'false (0)');

Switching to the query record.
QUERY: For O=c1[nH]cnc2nc(-c3ccc(N(CCCl)CCCl)cc3)[nH]c12 , what call appears in the results of this test?
RESULT: false (0)
